Tested on: Klebsiella aerogenes DSM 30053
Assay: fold change of Cadaverine concentration vs plate DMSO controls (fold change (ratio)); higher = more amine produced, active = hit call of the paper (significant change in both replicates, either direction)
Details: incubation time: 27 h, anaerobic, 37 °C
Counter-ions that a name gives are not always drawn.
Kindly state fold change of Cadaverine concentration for each of the entries shown.
Numbers only.

Exercise: Looking for the measured fold change of Cadaverine concentration of CN(C)CCOC(C)(c1ccccc1)c1ccccn1 (configuration not stated) [Doxylamine succinate] (20 µM) , can you help?
Key: 1

Exercise: Looking for the measured fold change of Cadaverine concentration of CC(COc1ccccc1)NC(C)C(O)c1ccc(O)cc1 (configuration not stated) [Isoxsuprine hydrochloride] (20 µM) , can you help?
Key: 1.03

Exercise: Looking for the measured fold change of Cadaverine concentration of CC1CCc2c(N3CCC(O)CC3)c(F)cc3c(=O)c(C(=O)O)cn1c23 (configuration not stated) [Nadifloxacin] (20 µM) , can you help?
Key: 0.982

Exercise: Looking for the measured fold change of Cadaverine concentration of CCOC(=O)Nc1ccc(NCc2ccc(F)cc2)nc1N [Flupirtine] (20 µM) , can you help?
Key: 0.999

Exercise: Looking for the measured fold change of Cadaverine concentration of CC(C)Nc1ncccn1 [Isaxonine] (20 µM) , can you help?
Key: 1.01

Exercise: Looking for the measured fold change of Cadaverine concentration of C/C(=C1\CCOC(=O)S1)N(C=O)Cc1cnc(C)nc1N [Cycotiamine] (20 µM) , can you help?
Key: 0.999

Exercise: Looking for the measured fold change of Cadaverine concentration of CCCCCCCCCCCCCCCCCCCCCC(=O)Nc1ccn([C@@H]2O[C@H](CO)[C@@H](O)[C@@H]2O)c(=O)n1 [Enocitabine] (20 µM) , can you help?
Key: 1.02

Exercise: Looking for the measured fold change of Cadaverine concentration of COc1ccc2[nH]c([S+]([O-])Cc3ncc(C)c(OC)c3C)nc2n1 (configuration not stated) [Tenatoprazole] (20 µM) , can you help?
Key: 0.995

Exercise: Looking for the measured fold change of Cadaverine concentration of Cc1cc(N)c2ccccc2[n+]1CCCCCCCCCC[n+]1c(C)cc(N)c2ccccc21 [Dequalinium dichloride] (20 µM) , can you help?
Key: 1.01

Exercise: Looking for the measured fold change of Cadaverine concentration of CC(C)NCC(O)c1ccc(NS(C)(=O)=O)cc1 (configuration not stated) [Sotalol hydrochloride] (20 µM) , can you help?
Key: 1.12

Below are 5 molecules. Give each one its fold change of Cadaverine concentration.
1. c1ccc2cc3ccccc3cc2c1 [Anthracene] (20 µM)
2. CC(=O)OC(C)OC(=O)C(C)c1ccc(-c2ccccc2)c(F)c1 (configuration not stated) [Flurbiprofen axetil] (20 µM)
3. Oc1ccc2ccccc2c1N=Nc1ccccc1 [Sudan I (1-phenylazo-2-hydroxynaphthalene)] (20 µM)
4. CC(=O)Oc1cc2c(s1)CCN(C(C(=O)C1CC1)c1ccccc1F)C2 (configuration not stated) [Prasugrel] (20 µM)
5. CC(C)(Sc1cc(C(C)(C)C)c(O)c(C(C)(C)C)c1)Sc1cc(C(C)(C)C)c(O)c(C(C)(C)C)c1 [Probucol] (20 µM)

Key:
[1.02, 0.987, 1.08, 0.994, 1.01]

Below are 2 molecules. Give each one its fold change of Cadaverine concentration.
1. NCCc1ccc(O)c(O)c1 [Dopamine hydrochloride] (20 µM)
2. COc1ccc2c(c1)c(CC(=O)O)c(C)n2C(=O)c1ccc(Cl)cc1 [Indomethacin] (20 µM)

Key:
0.987
0.989

Below are 3 molecules. Give each one its fold change of Cadaverine concentration.
1. COc1ccc(/C=C/C(=O)Nc2ccccc2C(=O)O)cc1OC [Tranilast] (20 µM)
2. COc1ccc(C2C(=O)c3ccccc3C2=O)cc1 [Anisindione] (20 µM)
3. N#Cc1ccc(C(c2ccc(C#N)cc2)n2cncn2)cc1 [Letrozole] (20 µM)

Key:
1. 1.02
2. 0.991
3. 0.992

Below are 7 molecules. Give each one its fold change of Cadaverine concentration.
1. CC(C)OC(=O)CCC/C=C\C[C@@H]1[C@@H](CC[C@@H](O)CCc2ccccc2)[C@H](O)C[C@@H]1O [Latanoprost] (20 µM)
2. CCCCNC(=N)NC(=N)N [Buformin] (20 µM)
3. CC(C)OC(=O)C(C)(C)Oc1ccc(C(=O)c2ccc(Cl)cc2)cc1 [Fenofibrate] (20 µM)
4. CC(=O)[C@H]1CC[C@H]2[C@@H]3CC=C4C[C@@H](O)CC[C@]4(C)[C@H]3CC[C@]12C [Pregnenolone] (20 µM)
5. CC(C)(C)NC[C@@H](O)COc1cccc2c1CCCC2=O [(+) Levobunolol hydrochloride] (20 µM)
6. CC(=O)N(CC(O)CN(C(C)=O)c1c(I)c(C(=O)NCC(O)CO)c(I)c(C(=O)NCC(O)CO)c1I)c1c(I)c(C(=O)NCC(O)CO)c(I)c(C(=O)NCC(O)CO)c1I (configuration not stated) [Iodixanol] (20 µM)
7. CN1[C@@H]2CC[C@H]1C[C@@H](OC(=O)c1c[nH]c3ccccc13)C2 [Tropisetron hydrochloride] (20 µM)

Key:
1. 1
2. 1
3. 1.01
4. 0.994
5. 0.999
6. 0.991
7. 1.01

Below are 2 molecules. Give each one its fold change of Cadaverine concentration.
1. N=C(N)NC(=O)c1nc(Cl)c(N)nc1N [Amiloride hydrochloride dihydrate] (20 µM)
2. NS(=O)(=O)c1cc(C(=O)O)c(NCc2ccco2)cc1Cl [Furosemide] (20 µM)

Key:
[1.05, 0.988]

Below are 2 molecules. Give each one its fold change of Cadaverine concentration.
1. CC1(C)S[C@@H]2[C@H](NC(=O)[C@H](C(=O)O)c3ccsc3)C(=O)N2[C@H]1C(=O)O [Ticarcillin sodium] (20 µM)
2. Cc1c(F)c(N2CCNC(C)C2)cc2c1c(=O)c(C(=O)O)cn2C1CC1 (configuration not stated) [Grepafloxacin] (20 µM)

Key:
[0.996, 0.936]

Exercise: Looking for the measured fold change of Cadaverine concentration of CC=CC1=C(C(=O)O)N2C(=O)[C@@H](NC(=O)[C@H](N)c3ccc(O)cc3)[C@H]2SC1 [Cefprozil] (20 µM) , can you help?
Key: 1.02
